These entries and their values trace back to ChEMBL document CHEMBL4513216.

Form field: cytotoxicity at 10 µM (one value per entry).
# measurement-description: Toxicity liver stage against HepG2, at 10uM
# Format: cell-based
# Design: test concentration 10 uM, cell line HepG2-A16-CD81EGFP
# assay-context: human, HepG2-A16-CD81EGFP cells; read-out: INHIBITION
Give the value, in units of %, as a plain number.

Would you please look over these solved cases?
>  <molecule>
CCOCC(=O)N1CCC(Cc2nnc(SC)n2C)CC1

>  <cytotoxicity at 10 µM (%)>
-53

$$$$
>  <molecule>
COc1c(Cl)cccc1NCc1csc(NC(C)=O)n1

>  <cytotoxicity at 10 µM (%)>
57.8

$$$$

Any idea what cytotoxicity at 10 µM was measured for O=C(c1cc(C2CC2)on1)N1CCCC(n2cccn2)C1 (configuration not stated) ?
-4.04

Any idea what cytotoxicity at 10 µM was measured for CCNc1c(NC(=O)C(C)(C)C)c(=O)oc2ccccc12 ?
-1.97

Any idea what cytotoxicity at 10 µM was measured for Cc1cccnc1NC(=O)C1CCCN1Cc1ccccc1 (configuration not stated) ?
10.2

Any idea what cytotoxicity at 10 µM was measured for NC(=O)CN1CCC(C(=O)NCc2nc(-c3ccc(F)cc3)cs2)CC1 ?
-5.79

Any idea what cytotoxicity at 10 µM was measured for CCOc1ccc(CC(CNC(=O)c2occc2C)C(N)=O)cc1 (configuration not stated) ?
5.17

Any idea what cytotoxicity at 10 µM was measured for COc1nc2ccn(CCc3scnc3C)c(=O)c2cc1C#N ?
12.8
